experiment: Metabolic stability in mouse liver microsomes assessed as half life at 1 uM measured upto 60 mins by UPLC-MS/MS analysis; type: ADME, Microsome
recorded_endpoint: half-life at 1 µM (min)
Give bare numbers, in min.

Q: Consider the compound shown here: Cc1ccc(C(=O)Nc2c(O)ccc3c(C)cc(=O)oc23)cc1 What is its recorded half-life at 1 µM?
Result: 17.1

====

test: Metabolic stability in human liver microsomes assessed as intrinsic clearance at 1 uM measured upto 60 mins by UPLC-MS/MS analysis; assay type: ADME, Microsome; conditions: read-out: CLH
recorded_endpoint: microsomal CLint at 1 µM (µL/min/mg)
Answers are plain numbers, in µL/min/mg.

Q: Consider the compound shown here: Cc1ccc(C(=O)Nc2c(O)ccc3c(C)cc(=O)oc23)cc1 What is its recorded microsomal CLint at 1 µM?
Result: 196

====

So I've got a bunch of compounds here, and I need their pIC50 values.
Target: Amine oxidase [flavin-containing] B (Homo sapiens)
Sequence (P27338 whole entry): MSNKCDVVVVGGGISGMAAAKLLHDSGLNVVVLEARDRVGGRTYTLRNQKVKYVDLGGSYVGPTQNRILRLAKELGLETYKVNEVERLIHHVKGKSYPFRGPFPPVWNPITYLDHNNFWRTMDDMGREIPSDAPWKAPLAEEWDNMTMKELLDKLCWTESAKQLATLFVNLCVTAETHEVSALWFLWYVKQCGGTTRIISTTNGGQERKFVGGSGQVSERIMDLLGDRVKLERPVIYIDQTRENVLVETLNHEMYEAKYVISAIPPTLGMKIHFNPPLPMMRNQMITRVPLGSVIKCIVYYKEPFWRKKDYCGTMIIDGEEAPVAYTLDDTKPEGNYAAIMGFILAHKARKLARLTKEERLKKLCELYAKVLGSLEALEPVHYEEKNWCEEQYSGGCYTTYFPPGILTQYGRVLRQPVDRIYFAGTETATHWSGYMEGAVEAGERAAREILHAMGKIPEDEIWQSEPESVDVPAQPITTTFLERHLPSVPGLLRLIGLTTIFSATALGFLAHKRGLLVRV
Assay: Inhibition of recombinant human MAO-B expressed in baculovirus infected BTITN-5B1-4 insect cells using p-tyramine as substrate incubated for 10 mins followed by substrate addition measured after 15 mins by Amplex Red assay
Answers are plain numbers, as −log10 of the molar value.

>>> measured_value("CCC(=O)Nc1c(O)ccc2c(C)cc(=O)oc12")
4.28
>>> measured_value("Cc1cc(=O)oc2c(NC(=O)C(C)C)c(O)ccc12")
4.51
>>> measured_value("Cc1cc(=O)oc2c(NC(=O)CCl)c(O)ccc12")
4.07
>>> measured_value("COc1cc(C(=O)Nc2c(O)ccc3c(C)cc(=O)oc23)cc(OC)c1OC")
4.17
>>> measured_value("C=CC(=O)Nc1c(O)ccc2c(C)cc(=O)oc12")
4.79
>>> measured_value("Cc1cc(=O)oc2c(NC(=O)CC(C)(C)C)c(O)ccc12")
5.13

Consider the additional compound presented here.
Q: Consider the compound shown here: Cc1cc(=O)oc2c(NC(=O)c3ccco3)c(O)ccc12 What is its recorded pIC50?
Result: 4.76

====

test: Chemical stability of compound in NaHCO3/Na2CO3 at pH 10.4 assessed as compound remaining at 10 uM incubated overnight by UPLC-MS/MS analysis; assay type: physicochemical; settings: NaHCO3/Na2CO3 buffer, read-out: Stability
recorded_endpoint: remaining at 10 µM (%)
Give bare numbers, in %.

Q: Consider the compound shown here: Cc1ccc(C(=O)Nc2c(O)ccc3c(C)cc(=O)oc23)cc1 What is its recorded remaining at 10 µM?
Result: 118

====

assay: Metabolic stability in mouse liver microsomes assessed as compound remaining at 1 uM measured upto 60 mins by UPLC-MS/MS analysis; assay type: ADME, Microsome; conditions: read-out: Stability
recorded_endpoint: remaining at 1 h, 1 µM (%)
One number for each entry, in %.

Q: Consider the molecule shown here: Cc1ccc(C(=O)Nc2c(O)ccc3c(C)cc(=O)oc23)cc1 What is its recorded remaining at 1 h, 1 µM?
Result: 8.3

====

So I've got a bunch of compounds here, and I need their Papp at 2 h values.
test: Permeability coefficient of compound incubated for 120 mins by UV-Vis spectroscopy based PAMPA-BBB assay
Answers are plain numbers, in nm/s.

>>> measured_value("CCOC(=O)Nc1c(O)ccc2c(C)cc(=O)oc12")
49

Consider the additional compound presented here.
Q: Consider the compound shown here: Cc1ccc(C(=O)Nc2c(O)ccc3c(C)cc(=O)oc23)cc1 What is its recorded Papp at 2 h?
Result: 86

====

experiment: Chemical stability of compound in NaH2PO4/NaHPO4 at pH 7.4 assessed as compound remaining at 10 uM incubated overnight by UPLC-MS/MS analysis; assay type: physicochemical; conditions: NaH2PO4/NaHPO4 buffer, read-out: Stability
recorded_endpoint: remaining at 10 µM (%)
One number for each entry, in %.

Q: Consider the molecule shown here: Cc1ccc(C(=O)Nc2c(O)ccc3c(C)cc(=O)oc23)cc1 What is its recorded remaining at 10 µM?
Result: 113

====

experiment: Chemical stability of compound in CH3COONa/CH3COOH at pH 3.5 assessed as compound remaining at 10 uM incubated overnight by UPLC-MS/MS analysis; assay type: physicochemical; conditions: CH3COONa/CH3COOH buffer, read-out: Stability
recorded_endpoint: remaining at 10 µM (%)
One number for each entry, in %.

Q: Consider the compound shown here: Cc1ccc(C(=O)Nc2c(O)ccc3c(C)cc(=O)oc23)cc1 What is its recorded remaining at 10 µM?
Result: 98

====

molecular target: UniProt P21397; experiment: Inhibition of recombinant human MAO-A expressed in baculovirus infected BTITN-5B1-4 insect cells using p-tyramine as substrate incubated for 10 mins followed by substrate addition measured after 15 mins by Amplex Red assay
Sequence (P21397 whole entry): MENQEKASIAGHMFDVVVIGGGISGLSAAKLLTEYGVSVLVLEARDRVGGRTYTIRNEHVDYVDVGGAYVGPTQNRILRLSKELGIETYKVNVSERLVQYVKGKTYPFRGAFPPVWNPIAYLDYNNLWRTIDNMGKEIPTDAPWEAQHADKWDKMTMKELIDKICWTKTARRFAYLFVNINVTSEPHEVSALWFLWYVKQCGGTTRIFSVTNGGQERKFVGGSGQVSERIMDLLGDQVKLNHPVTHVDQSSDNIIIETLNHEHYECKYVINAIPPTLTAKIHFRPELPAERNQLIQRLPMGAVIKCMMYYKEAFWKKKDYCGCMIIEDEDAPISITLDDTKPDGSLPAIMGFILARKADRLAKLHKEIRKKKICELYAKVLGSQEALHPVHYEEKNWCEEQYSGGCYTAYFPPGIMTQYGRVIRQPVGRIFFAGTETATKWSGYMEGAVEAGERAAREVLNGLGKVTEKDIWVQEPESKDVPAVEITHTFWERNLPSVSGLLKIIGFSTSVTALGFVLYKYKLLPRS
pIC50: −log10 of the molar value.
Short version: pIC50 at least 6 is fulfilled, less is not fulfilled.

Worked examples, 4 compounds total:
>>> classification("Cc1cc(=O)oc2c(NC(=O)OCc3ccccc3)c(O)ccc12")
"not fulfilled"
>>> classification("Cc1cc(=O)oc2c(NC(=O)/C=C/c3ccccc3)c(O)ccc12")
"fulfilled"
>>> classification("Cc1cc(=O)oc2c(NC(=O)OCCl)c(O)ccc12")
"not fulfilled"
>>> classification("Cc1cc(=O)oc2c(NC(=O)OC(C)C)c(O)ccc12")
"not fulfilled"

Q: Does pIC50 meet or surpass 6 for C=CC(=O)Nc1c(O)ccc2c(C)cc(=O)oc12 ?
Result: not fulfilled

====

test: Metabolic stability in human liver microsomes assessed as compound remaining at 1 uM measured upto 60 mins by UPLC-MS/MS analysis; type: ADME, Microsome; settings: read-out: Stability
recorded_endpoint: remaining at 1 h, 1 µM (%)
One number for each entry, in %.

Q: Consider the compound shown here: Cc1ccc(C(=O)Nc2c(O)ccc3c(C)cc(=O)oc23)cc1 What is its recorded remaining at 1 h, 1 µM?
Result: 0.5
